Each entry below lists one item and its recorded viability, T/C value.
tested on: 287954-098-R-J1 tumor spheroid viability; assay: Anticancer human tumor 287954-098-R-J1 patient-derived Ewing sarcoma cell line growth inhibition; conditions: second compound 30 pM; first compound 0.1 µM; hits give low values; spheroids with HUVEC and MSC;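 also: luminescent signal taken as surrogate of viable cell content; spheroids exposed to compound for 7 days before viability readout; 100% = DMSO vehicle control viability and lower means growth inhibition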
Express the result in % but write the number alone.

Consider the reported viability, T/C for these compounds:
Cc1cc(C)c(CNC(=O)c2cc(-c3ccc(CN4CCOCC4)cc3)cc3c2cnn3C2CCCC2)c(=O)[nH]1 + COc1cc2c(cc1O)CCNC21CSC2c3c(OC(C)=O)c(C)c4c(c3C(COC1=O)N1C(O)C3Cc5cc(C)c(OC)c(O)c5C(C21)N3C)OCO4: 108
COc1cc(C)[nH]c(=O)c1CN1CCc2c(Cl)cc(C(OC)C3COC3)c(Cl)c2C1=O (stereo unspecified) + COc1cc2c(cc1O)CCNC21CSC2c3c(OC(C)=O)c(C)c4c(c3C(COC1=O)N1C(O)C3Cc5cc(C)c(OC)c(O)c5C(C21)N3C)OCO4: 94.2
CC(C)n1c(=O)n(C)c2cnc3cc(F)c(-c4ccc(OCCCN5CCCCC5)nc4)cc3c21 + COc1cc2c(cc1O)CCNC21CSC2c3c(OC(C)=O)c(C)c4c(c3C(COC1=O)N1C(O)C3Cc5cc(C)c(OC)c(O)c5C(C21)N3C)OCO4: 84.8
CC1COCCN1c1cc(-c2ccnn2C)c2ccnc(-c3ccn[nH]3)c2n1 (stereo unspecified) + COc1cc2c(cc1O)CCNC21CSC2c3c(OC(C)=O)c(C)c4c(c3C(COC1=O)N1C(O)C3Cc5cc(C)c(OC)c(O)c5C(C21)N3C)OCO4: 28.8
[2H]c1nc(C)nc([2H])c1-c1cc(NC[C@@H](C)c2cccc3c(C(=O)NC)ccnc23)ncn1 + COc1cc2c(cc1O)CCNC21CSC2c3c(OC(C)=O)c(C)c4c(c3C(COC1=O)N1C(O)C3Cc5cc(C)c(OC)c(O)c5C(C21)N3C)OCO4: 104

Exam item: For the compound COc1ccc([C@@H](O)c2cc(-c3ncnc4cc(N5CCOCC5)ccc34)c(F)cc2Cl)nn1 + COc1cc2c(cc1O)CCNC21CSC2c3c(OC(C)=O)c(C)c4c(c3C(COC1=O)N1C(O)C3Cc5cc(C)c(OC)c(O)c5C(C21)N3C)OCO4 , what viability, T/C is on record?
Marked response: 99.2
